Test system: HLA class-I alleles A*0101, A*0201, A*0301, A*2402, B*0702, B*0801, B*1402, B*1501, B*2705, B*3501, B*3901, B*4001, B*4402, B*5201, B*5701, B*5801, B*8101 …
Format: cell-based, human
run_conditions: HLA B*40 mono-allelic TAP-deficient 721.221 cells; peptide 10 uM; relative anti-HLA MFI
Define the label as criterion met when Relative HLA MFI (10 uM) is strictly less than 0.5 and as criterion not met in all remaining cases.

sequence_code="TERQANFL [TL8]" label_class="criterion met"
sequence_code="LEKHGAITS [LS9]" label_class="criterion met"
sequence_code="AEWDRVHPV [AV9]" label_class="criterion not met"
sequence_code="QELKNSAVSL [QL10]" label_class="criterion met"
sequence_code="GERIVDII [GI8]" label_class="criterion not met"
sequence_code="IEIKDTKEAL [IL10]" label_class="criterion not met"
sequence_code="KETINEEAA [KA9]" label_class="criterion met"
sequence_code="IPRRIRQGL [IL9]" label_class="criterion not met"
sequence_code="GELDRWEKI [GI9]" label_class="criterion met"
sequence_code="IEAEVIPAET [IT10]" label_class="criterion met"

This collection of values is drawn from paper PMC8293625.
